study system: Sphingosine 1-phosphate receptor 3 (Homo sapiens, UniProt Q99500)
Sequence (Q99500 whole entry): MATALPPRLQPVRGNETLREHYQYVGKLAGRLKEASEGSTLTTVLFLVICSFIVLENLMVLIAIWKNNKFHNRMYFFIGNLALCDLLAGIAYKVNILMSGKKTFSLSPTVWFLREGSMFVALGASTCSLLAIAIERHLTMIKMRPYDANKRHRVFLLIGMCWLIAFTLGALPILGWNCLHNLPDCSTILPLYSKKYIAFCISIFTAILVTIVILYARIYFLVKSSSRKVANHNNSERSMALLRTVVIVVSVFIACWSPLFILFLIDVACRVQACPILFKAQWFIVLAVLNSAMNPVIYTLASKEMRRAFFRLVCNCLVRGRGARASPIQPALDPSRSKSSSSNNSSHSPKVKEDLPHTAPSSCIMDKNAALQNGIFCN
method notes: Agonist activity at human recombinant S1P3 receptor expressed in CHO cells assessed as membrane-bound 35S-GTPgammaS incubated 30 mins prior to substrate addition measured after 1 hr by topcount scintillation counting analysis
Threshold 2000 nM. EC50 below it: yes (1). EC50 at it or above: no (0).

- compound: "CCc1ccc(-c2nc(-c3cc(C)c(OCC(O)CNC(=O)CO)c(C)c3)no2)s1 (racemic)"
  class: "yes (1)"
- compound: "CCc1sc(C(=O)CCc2cc(C)c(OC[C@@H](O)CO)c(C)c2)c2c1CC(CC)(CC)CC2"
  class: "yes (1)"
- compound: "CCc1sc(C(=O)CCc2cc(C)c(OC[C@@H](O)CO)c(C)c2)c2c1CC1(CC2)CC1"
  class: "yes (1)"
- compound: "Cc1cc(-c2noc(-c3ccc(CC(C)C)s3)n2)cc(C)c1OCC(O)CNC(=O)CO (racemic)"
  class: "yes (1)"
- compound: "CCc1cc(CCC(=O)c2scc3c2CCC(C)(C)C3)cc(C)c1OC[C@@H](O)CNC(=O)CO"
  class: "no (0)"
- compound: "Cc1cc(CCC(=O)c2sc(C)c3c2CCC(C)(C)C3)cc(C)c1OC[C@@H](O)CO"
  class: "yes (1)"
- compound: "CCc1cc(-c2noc(-c3sc(C)c4c3CCC(C)(C)C4)n2)cc(C)c1OCC(O)CNC(=O)CO (racemic)"
  class: "yes (1)"
- compound: "Cc1cc(CCC(=O)c2sc(C)c3c2CCC(C)(C)C3)cc(C)c1OCC(O)CN1CC(C(=O)O)C1 (racemic)"
  class: "yes (1)"
- compound: "Cc1cc(CCC(=O)c2sc(C)c3c2CCC(C)(C)C3)cc(C)c1OCC(O)CN (racemic)"
  class: "no (0)"

----------
Below, each entry is listed alongside its reported concentration at 6 h.
method notes: Plasma concentration in Wistar rat at 10 mg/kg, po after 6 hrs
Format: ADME, organism-based
Set-up: dose 10 mg/kg, route oral

- molecule: "Cc1cc(-c2noc(-c3ccc(CC(C)C)s3)n2)cc(C)c1OCC(O)CNC(=O)CO (racemic)"
  concentration at 6 h (ng/mL): 680
- molecule: "CCc1cc(-c2noc(-c3sc(CC)c4c3CCC(C)(C)C4)n2)cc(C)c1OC[C@@H](O)CNC(=O)CO"
  concentration at 6 h (ng/mL): 911
- molecule: "CCc1ccc(-c2nc(-c3cc(C)c(OCC(O)CNC(=O)CO)c(C)c3)no2)s1 (racemic)"
  concentration at 6 h (ng/mL): 190
- molecule: "CCc1cc(CCC(=O)c2sc(CC)c3c2CCC(C)(C)C3)cc(C)c1OCC(O)CNC(=O)CO (racemic)"
  concentration at 6 h (ng/mL): 10

----------
method notes: Volume of distribution at steady state in Wistar rat at 1 mg/kg, iv
Format: ADME, organism-based
Parameters: dose 1 mg/kg, route intravenous
measurement conditions: in vivo, read-out: Vdss

- compound: "CCc1cc(-c2noc(-c3sc(CC)c4c3CCC(C)(C)C4)n2)cc(C)c1OC[C@@H](O)CNC(=O)CO"
  Vd (L/kg): 3.5
- compound: "CCc1cc(CCC(=O)c2sc(CC)c3c2CCC(C)(C)C3)cc(C)c1OCC(O)CNC(=O)CO (racemic)"
  Vd (L/kg): 2.8
